Molecular target: Rap guanine nucleotide exchange factor 3 (Homo sapiens)
Assay: Counterscreen qHTS for agonist of cAMP-regulated guanine nucleotide exchange factor 3 (EPAC1) (AID 1645889); further: % of control where 0% means no effect; nearly all actives have a fitted effect of over 40% in size
Conditions: EPAC1 Rap1B-BODIPY-GDP exchange, fluorescence; series mostly up to 154 µM
Inconclusive results are not listed. Activity calls are given as the source filed them. The call rests on the fitted dose curve; in most records, active means well fitted activation curve with a large enough effect; inconclusive means small, poorly fitted or top-dose-only effect, or another doubt; inactive means no such curve, though single readings can be large or run the other way.
experimental endpoint: activation

Below, 7 molecules whose answers are already recorded.
CCOc1ccccc1CNc1ncnc2ccc(-c3c(C)noc3C)cc12 = inactive
CCC(=O)NC(c1ccco1)c1cc(Cl)c2ccccc2c1O (stereo not drawn) = inactive
CCC(=O)NC(c1cccs1)c1cc(Cl)c2cccnc2c1O (stereo not drawn) = inactive
CC(/C=C1\SC(=S)N(CC(=O)O)C1=O)=C\c1ccccc1 = inactive
O=C(CSc1nc2ccccc2n1CCc1ccccc1)c1ccc(O)c(O)c1 = inactive
CCC(=O)NC(c1cc(Cl)c2ccccc2c1O)C(C)C (stereo not drawn) = inactive
CC(=O)NC(c1cc(Cl)c2ccccc2c1O)C(C)C (stereo not drawn) = 8.27% [at 30.8 µM] (inactive)

Which measured activation value corresponds to CN1C2CC(OC(=O)C(CO)c3ccccc3)CC1C1OC12 (stereo not drawn) ? 0.0134% [at 30.8 µM] (inactive)

====

Assay: Primary qHTS for inhibitors of nuclear receptor binding SET domain protein 2 (NSD2) in an RCH-ACV wild type WT cells (2C) (AID 1645877); further: nearly all actives have a fitted effect of over 70% in size
Details: RCH-ACV (leukaemia line) NSD2 WT (2C) viability, CellTiter-Glo, 72 h; series mostly up to 44.9 µM
Inconclusive results are not listed. Activity calls are given as the source filed them. Calls come from the whole dose curve; as a rule, active = well fitted inhibition curve with a large enough effect; inconclusive = small, poorly fitted or top-dose-only effect; inactive = no such curve, though single readings can be large or run the other way.
Just give me one of these, please: true for active, false for inactive

Test call, this molecule: `CN(C)CCOc1ccc(-c2nc(-c3ccc4c(c3)CC/C4=N\O)c(-c3ccncc3)[nH]2)cc1` true

For this molecule, state the assay outcome: `COc1cc(OC)c(/C=C/S(=O)(=O)Cc2ccc(OC)c(OP(=O)(O)O)c2)c(OC)c1` true

For `CN(C)Cc1ccc(S(=O)(=O)n2ccc(/C=C/C(=O)NO)c2)cc1` , which call appears in the assay record? true

Which outcome was entered for the molecule `COc1ccc(S(=O)(=O)N[C@@H](CNc2nc(C)nc(N3CCC(c4ccc5c(n4)NCCC5)CC3)c2C)C(=O)O)cc1` in this test? false

What call does the record list for `Cc1c(-c2c(-c3ccc(F)o3)sc3ncnc(O[C@@H](Cc4ccccc4OCc4ccnn4CC(F)(F)F)C(=O)O)c23)ccc(OCCN2CCN(C)CC2)c1Cl` ? true

Test call for this molecule, please: `CC(=O)N1c2ccc(-c3ccc(C(=O)O)cc3)cc2[C@H](Nc2ccc(Cl)cc2)C[C@@H]1C` true

Lab log entry: `C[C@@]1(c2ncncc2F)NC(=O)c2cc(-c3cn[nH]c3)ccc21` — outcome as called in the assay? true

// outcome(item) with item = `CCOC(=O)N[C@@H]1CC[C@@H]2[C@@H](C1)C[C@H]1C(=O)O[C@H](C)[C@H]1[C@H]2/C=C/c1ccc(-c2cccc(F)c2)cn1` true

Write down the call the test reported for this molecule. Item: CCCNC(=O)[C@H]1O[C@@H]1C(=O)N[C@H](C(=O)N1CCC[C@H]1C(=O)OC)C(C)CC (stereo partly specified) true

Entry CCC(C)CNCC(=O)N1CCc2sccc2C1c1cccc(C)n1 (stereo unspecified) : call = ? false

Fill in: this test's call for `CC1(C)CCC2(CC1)N[C@@H](C(=O)N[C@@H]1CC[C@@H](C(N)=O)OC1)[C@H](c1ccnc(Cl)c1F)[C@]21C(=O)Nc2cc(Cl)ccc21` is ___ true

Which outcome did this test record for the molecule `CCC(=C/[C@H](C)C/C=C/C(C)=C/[C@@H](C)C(=O)[C@@H](C)[C@H](O)[C@@H](C)C/C(C)=C/C(=O)O)/C=C/[C@@H]1OC(=O)C=C[C@@H]1C` ? true

Query: recorded result category for `COc1ccnc2[nH]cc(C(=O)C(=O)N3CCN(C(=O)c4ccccc4)C[C@H]3C)c12` in this test false

GET /call?item= `Cc1cc(C)c(S(=O)(=O)N(CCc2cccc(Br)c2)Cc2ccc(-c3cccc(S(C)(=O)=O)c3)cc2)c(C)c1` returns the recorded outcome of this test. false

Record lookup: outcome of this test for N#Cc1ccnc(N2C(=O)CC[C@H]2C(=O)N(c2cncc(F)c2)C(C(=O)NC2CC(F)(F)C2)c2ccccc2Cl)c1 (stereo partly specified) ? false

Could you kindly confirm the outcome this assay logged for `CC1(C)OC2=C(C(=O)c3ccccc3C2=O)[C@H](NCc2ccccc2)[C@@H]1O` ? true

====

Assay: U-118MG Cancer Cell Toxicity qHTS against the NCATS CANVASS Library (AID 1347351)
Details: U-118MG viability, CellTiter-Glo luminescence, 72 h; series mostly up to 38.3 µM
Inconclusive results are not listed. Calls of active or inactive are those of the source. The call rests on the fitted dose curve; in most records, active means well fitted cell-killing curve with a large enough effect; inconclusive means small, poorly fitted or top-dose-only effect; inactive means flat fitted curve, though single readings scatter.
# valid calls are TRUE (active), FALSE (inactive); nothing else

Returns: the outcome recorded for `C/C=C1/C2=CCCN3C(=O)O[C@H]([C@H]1O)[C@H]23` in this assay. FALSE

Outcome logged for C/C=C/C1C=CC2CC(C)CC(C)C2C1C(=O)CC(=O)NC(CO)C/C=C/CCCCC (configuration not stated) in this assay: FALSE

What is the recorded call for this compound in the test? `C[C@]12CCC[C@](C)(C(=O)O)[C@@H]1CC[C@@]1(C)c3cocc3CC[C@H]21` FALSE

# outcome recorded in this test, key = `CC[C@H](O)CCCCC[C@@H]1NC(=O)[C@H]2CCCCN2C(=O)[C@H]([C@H](C)CC)NC(=O)[C@H](Cc2cn(OC)c3ccccc23)NC1=O` TRUE

Record request — test call for CC(C)=CCCC(C)(O)[C@H]1CC=C(C)C(O)C1 (some centres not stated) FALSE

How was C/C(=C\CC[C@@H](C)[C@H]1CC[C@]2(C)C3=CCC4C(C)(C)[C@@H](O)C[C@@H](O)[C@]4(C)C3[C@H](O)C[C@@]12C)CO (some centres not stated) classified in this test? FALSE

Assay result, entry C=CC(CCCCC)C1C(=O)NC(=O)C1C(=O)C1C2C(C)CC(C(=O)O)CC2CC1(O)C(=O)/C=C/C (configuration not stated) — outcome? FALSE

Hey, what did the test say about C/C=C(/CO)C(=O)O[C@@H]1[C@H](O)[C@@H](C(=O)OC)O[C@@H]2C[C@H]3OC(n4cnc5c(N)ncnc54)[C@H](OC)[C@H]3O[C@@]12O (some centres not stated) ? FALSE

Returns: the outcome recorded for `COc1cc(/C=C/C(=O)OC[C@@H](Cc2ccc(O)c(OC)c2)[C@@H](COC(=O)/C=C/c2ccc(O)c(OC)c2)Cc2ccc(O)c(OC)c2)ccc1O` in this assay. TRUE

Record lookup: outcome of this test for C=C1[C@@]2(C)CC3C4(C)CCC(O)C(C)(C)C4CCC3(C)[C@]1(C(=O)OC)C(=O)C(C)(O)C2=O (some centres not stated) ? FALSE

Test call for this compound, please: `CN1C(=O)C(=O)N2C(=C[C@]3(c4c[nH]c5ccccc45)c4ccccc4N[C@H]23)C1=O` FALSE

Recorded test outcome, item `COc1cc2ccc(=O)oc2c(O)c1O[C@@H]1O[C@H](CO)[C@@H](O)[C@H](O)[C@H]1O` FALSE

GET /call?item= O=C1OC(CCO)c2cccc(O)c21 (configuration not stated) returns the recorded outcome of this test. FALSE

Tell me the assay call for Oc1ccc(C2Oc3cc(O)c4c(c3[C@@H]2c2cc(O)cc(O)c2)[C@H]2C(c3ccc(O)cc3)c3c(O)cc5c(c3[C@H]2C4c2ccc(O)cc2)[C@H](c2cc(O)cc(O)c2)C(c2ccc(O)cc2)O5)cc1 (some centres not stated) please. FALSE

What is the recorded call for this compound in the test? COc1cc2c(cc1OC)[C@@H](c1ccc3c(c1)OCO3)C(C)C(C)C2=O (some centres not stated) FALSE

// param item: `C=C[C@]1(C)CC[C@@H]([C@H](C)C(=O)CC=C(C)C)O1` ; yields the recorded call FALSE

Each compound tested received a call. Report the one for `C[C@@]12CCC[C@@](C)(C(=O)O)[C@H]1C[C@@H](O)[C@@]13C[C@@H](CC[C@@H]21)[C@](C)(O)C3` . FALSE

====

Test: qHTS for ATAD5 Antagonist screened against the NCATS CANVASS Library (AID 1347370); further: nearly all actives have a fitted effect of over 65% in size
Conditions: HEK293T-ATAD5-luc, 5-FUrd stimulated, luminescence, 16 h; series mostly up to 46.1 µM
Inconclusive results are not listed. Calls of active or inactive are those of the source. Calls come from the whole dose curve; as a rule, active = well fitted inhibition curve with a large enough effect; inconclusive = small, poorly fitted or top-dose-only effect; inactive = no such curve, though single readings can be large or run the other way.
Choose one outcome from this list and give only that: active, inactive

In this assay, the call recorded for `CCC(=O)CCCCC[C@@H]1NC(=O)[C@H]2CCCCN2C(=O)[C@H](C(C)C)NC(=O)[C@H](Cc2cn(OC)c3ccccc23)NC1=O` was what? inactive

Query: recorded result category for O=C1CC(c2ccc(O)cc2)Oc2ccccc21 (stereo unspecified) in this test inactive

Please let me know the test result on file for C/C=C(/CO)C(=O)O[C@@H]1[C@H](O)[C@@H](C(=O)OC)O[C@@H]2C[C@H]3OC(n4cnc5c(N)ncnc54)[C@H](OC)[C@H]3O[C@@]12O (stereo partly specified) . inactive

Returns: the outcome recorded for COc1cc(C2C3=C(Cc4cc5c(cc42)OCO5)C(=O)OC3)cc(OC)c1OC (stereo unspecified) in this assay. inactive

Per the assay record, what outcome was assigned to `COc1c(O)cc(O)c2c(=O)cc(-c3ccccc3)oc12` ? inactive

Each molecule tested received a call. Report the one for `C[C@@]12CCC[C@@](C)(C(=O)O)[C@H]1CC[C@@]13C[C@@H](CC[C@H]12)[C@](C)(O)C3` . inactive

Short answer needed: outcome of this test for `C[C@]12CC[C@]3(C1)[C@H](CC2=O)C[C@@H](OC(=O)c1ccccc1)[C@H]1[C@](C)(C(=O)O)CCC[C@@]13C` ? inactive

Given `Cc1cc(C)c(O)c(C(=O)CC2CC(=O)NC(=O)C2)c1` , state the outcome it received in this test. active

Which outcome was entered for the molecule `CCCc1c2c([nH]c(=O)c1C)C(=O)c1[nH]c(=O)c(C)c(CCC)c1C2=O` in this test? inactive

Please indicate how the test categorized `C/C(=C\[C@H](C)C(=O)/C=C/CC1CC(=O)NC(=O)C1)[C@@H]1OC(=O)CCCC/C=C/[C@H](O)[C@@H](O)[C@@H]1C` . active

// return assay outcome for `CC[C@@H]1[C@H](C)[C@H](c2cc(OC)c(OC)cc2OC)[C@@H](C)[C@H](c2cc(OC)c(OC)cc2OC)[C@]12C=C(OC)C(=O)C=C2OC` active

Short answer needed: outcome of this test for C[C@H]1CCC2(OC1)O[C@H]1C[C@H]3[C@@H]4CC(=O)[C@]5(O)C[C@H](O)CC[C@@]5(C)[C@H]4CC[C@@]3(C)[C@H]1[C@H]2C (stereo partly specified) ? inactive

Record request — test call for `COC(=O)[C@@]1(C)CCC[C@]2(C)c3cc(OC)ccc3CC[C@@H]12` inactive

How did this test come out for `CC[C@@H](c1cc(OC)c(OC)cc1OC)[C@H](C)[C@@H](/C(C)=C/c1cc(OC)c(OC)cc1OC)c1cc(OC)c(OC)cc1OC` ? active

Please share the test call associated with C/C(=C\CC[C@@H](C)[C@H]1CC[C@]2(C)C3=CCC4C(C)(C)[C@@H](O)C[C@@H](O)[C@]4(C)C3[C@H](O)C[C@@]12C)CO (stereo partly specified) . inactive

Can you look up the reported call for `CC(=O)O[C@H]1c2ccccc2-c2c3c(cc4c2[C@@H]1N(C(C)=O)CC4)OCO3` for me? inactive
